Each record here notes measured IC50.
Target Or System: human HER2/ErbB2 (Homo sapiens, UniProt P04626)
Sequence (P04626 676-1255): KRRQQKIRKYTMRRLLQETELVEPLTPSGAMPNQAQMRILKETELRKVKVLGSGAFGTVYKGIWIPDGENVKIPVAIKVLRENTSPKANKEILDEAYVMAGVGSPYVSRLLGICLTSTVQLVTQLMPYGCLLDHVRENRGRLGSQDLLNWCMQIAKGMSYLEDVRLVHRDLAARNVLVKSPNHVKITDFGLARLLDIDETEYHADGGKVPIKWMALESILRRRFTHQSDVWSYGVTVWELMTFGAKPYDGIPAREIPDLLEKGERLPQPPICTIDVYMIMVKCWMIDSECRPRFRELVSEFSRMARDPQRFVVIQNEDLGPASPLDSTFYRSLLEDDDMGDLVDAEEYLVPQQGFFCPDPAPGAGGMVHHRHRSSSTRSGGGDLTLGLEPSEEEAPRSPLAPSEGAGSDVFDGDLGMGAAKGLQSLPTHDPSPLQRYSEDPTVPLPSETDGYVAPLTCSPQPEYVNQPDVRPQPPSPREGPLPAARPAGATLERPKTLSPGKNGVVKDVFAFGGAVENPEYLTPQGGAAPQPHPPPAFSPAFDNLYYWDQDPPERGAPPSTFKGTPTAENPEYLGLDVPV
Assay Explanation: HTScan Receptor Kinase Assay, HER2/ErbB2;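 also: europium time-resolved fluorescence detection of anti-phosphotyrosine antibody binding to biotinylated FLT3 (Tyr589) peptide phosphorylated by the kinase, 30 min reaction at room temperature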

In the examples that follow, each entry is paired with its recorded IC50.
Smiles Code	Target Or System	Quantity Name	Value Measured
C[C@@H](Nc1ncnc2[nH]c(-c3ccc(CN4CCN(CCCC(=O)NO)CC4)cc3)cc12)c1ccccc1	human HER2/ErbB2 (Homo sapiens, UniProt P04626)	IC50	< 100 nM
O=C(CCCCCN1CCN(Cc2ccc(-c3cc4c(NCc5ccccc5)ncnc4[nH]3)cc2)CC1)NO	human HER2/ErbB2 (Homo sapiens, UniProt P04626)	IC50	100 to 1000 nM
C[C@@H](Nc1ncnc2[nH]c(-c3ccc(CN4CCN(CCCCCC(=O)NO)CC4)cc3)cc12)c1ccccc1	human HER2/ErbB2 (Homo sapiens, UniProt P04626)	IC50	100 to 1000 nM
C[C@@H](Nc1ncnc2[nH]c(-c3ccc(OCC(=O)NO)cc3)cc12)c1ccccc1	human HER2/ErbB2 (Homo sapiens, UniProt P04626)	IC50	< 100 nM
C[C@@H](Nc1ncnc2[nH]c(-c3ccc(OCCCC(=O)NO)cc3)cc12)c1ccccc1	human HER2/ErbB2 (Homo sapiens, UniProt P04626)	IC50	100 to 1000 nM
C[C@@H](Nc1ncnc2[nH]c(-c3ccc(C(=O)NO)cc3)cc12)c1ccccc1	human HER2/ErbB2 (Homo sapiens, UniProt P04626)	IC50	< 100 nM

Could you share what IC50 was measured for "C[C@@H](Nc1ncnc2[nH]c(-c3ccc(C(=O)NCCNCC(=O)NO)cc3)cc12)c1ccccc1" , tested on human HER2/ErbB2 (Homo sapiens, UniProt P04626)?
100 to 1000 nM

Next up: "O=C(NO)c1ccc(-c2cc3c(NCc4ccccc4)ncnc3[nH]2)cc1"
100 to 1000 nM
